- Tested on: Mus musculus
- ASSAY_OVERVIEW: Dose normalized AUC in mouse at 3 mg/kg, po or 1 mg/kg, iv
- Assay type: ADME, organism-based
- CONDITIONS_USED: in vivo
MEASUREMENT_TYPE: AUC/dose (µg·h/mL)
Give bare numbers, in µg·h/mL.

COMPOUND	EXPERIMENTAL_SYSTEM	AUC/dose, µg·h/mL
CC(C)(C)c1ccc(Nc2nc(CC(=O)O)cs2)cc1	Mus musculus	24.1
CCCCc1ccc(Nc2nc(CC(=O)O)c(Cl)s2)cc1	Mus musculus	6
O=C(O)Cc1csc(Nc2ccc(OCCC(F)(F)F)cc2)n1	Mus musculus	15
CCC(C)c1ccc(Nc2nc(CC(=O)O)cs2)cc1 (racemic)	Mus musculus	14.4
CCCCc1ccc(Nc2nc(CC(=O)O)c(C)s2)cc1	Mus musculus	4.8

Value sought for every listed compound: AUC/dose.
1. CCCCc1ccc(Nc2nc(C(C)C(=O)O)cs2)cc1 (stereo not drawn)
2. CCCCc1ccc(Nc2nc(CC(=O)O)cs2)cc1
3. CCCCc1ccc(Nc2nc(C(C)(C)C(=O)O)cs2)cc1

**Result**
4.8
4.9
1.4

====

- System: Mycobacterium tuberculosis
- ASSAY_OVERVIEW: Antitubercular activity against Mycobacterium tuberculosis H37Ra infected in THP-1 macrophages measured after 5 days post infection by luciferase reporter gene assay
- Type: functional
- CONDITIONS_USED: THP-1, 120 h
IC50 under 0.07 µM gets t, anything at or over 0.07 µM gets f.

Answered examples (4):
MOLECULE	CATEGORY
Cc1csc(Nc2ccc(C(C)(C)O)cc2)n1	t
CCC(C)c1ccc(Nc2nc(C)cs2)cc1 (configuration not stated)	t
Cc1csc(Nc2ccc(COCC(F)(F)F)cc2)n1	t
CCCCCc1ccc(Nc2nc(C)cs2)cc1	t

**Query** Confirm or reject: IC50 of `Cc1ccc(Nc2nc(C)cs2)cc1` lies strictly below 0.07 µM
**Result** f

**Query** Confirm or reject: IC50 of `Cc1csc(Nc2ccc(CCN(C)C)cc2)n1` lies strictly below 0.07 µM
**Result** f

**Query** Confirm or reject: IC50 of `CCCCc1ccc(Nc2nc(C(C)(C)C(=O)O)cs2)cc1` lies strictly below 0.07 µM
**Result** f

**Query** Confirm or reject: IC50 of `CCCCc1ccc(Nc2nc(CC(=O)O)cs2)cc1` lies strictly below 0.07 µM
**Result** f

**Query** Confirm or reject: IC50 of `CCNCc1ccc(Nc2nc(C)cs2)cc1` lies strictly below 0.07 µM
**Result** f

====

Please go through the items and note down their clearance.
- ASSAY_OVERVIEW: Clearance in mouse at 1 mg/kg, iv
- Assay type: ADME, organism-based
- CONDITIONS_USED: in vivo
One number for each entry, in mL/min/kg.

Worked set:
COMPOUND	UNITS_SYMBOL	TEST_VALUE
CC(C)(C)c1ccc(Nc2nc(CC(=O)O)cs2)cc1	mL/min/kg	4
CCCCc1ccc(Nc2nc(CC(=O)O)c(C)s2)cc1	mL/min/kg	7
CCCCc1ccc(Nc2nc(CC(=O)O)c(Cl)s2)cc1	mL/min/kg	5
CCCCc1ccc(Nc2nc(CC(=O)O)cs2)cc1	mL/min/kg	5
O=C(O)Cc1csc(Nc2ccc(OCCC(F)(F)F)cc2)n1	mL/min/kg	1.5
CCCCc1ccc(Nc2nc(C(C)C(=O)O)cs2)cc1 (stereo not drawn)	mL/min/kg	4
CCC(C)c1ccc(Nc2nc(CC(=O)O)cs2)cc1 (racemic)	mL/min/kg	3

Okay, next one:
Value of clearance reported for the compound `CCCCc1ccc(Nc2nc(C(C)(C)C(=O)O)cs2)cc1` is 18

====

- ASSAY_OVERVIEW: Metabolic stability in rat liver microsomes assessed as compound remaining at 1 uM measured after 30 mins
- Format: ADME, microsome
- CONDITIONS_USED: read-out: Stability
MEASUREMENT_TYPE: remaining at 0.5 h, 1 µM
# number then unit; no other words

COMPOUND	TEST_VALUE
CCNCc1ccc(Nc2nc(C)cs2)cc1	0%
CCCCc1ccc(Nc2nc(C)cs2)cc1	1%

Value sought for every listed compound: remaining at 0.5 h, 1 µM.
1. Cc1csc(Nc2ccc(C(C)C)cc2)n1
2. Cc1csc(Nc2ccc(OCCO)cc2)n1
3. CCCCCc1ccc(Nc2nc(C)cs2)cc1

**Result**
1. 0%
2. 73%
3. 3%

Value sought for every listed compound: remaining at 0.5 h, 1 µM.
1. CCC(O)Cc1ccc(Nc2nc(C)cs2)cc1 (stereo not drawn)
2. CCCOc1ccc(Nc2nc(C)cs2)cc1

**Result**
1. 1%
2. 4%

Value sought for every listed compound: remaining at 0.5 h, 1 µM.
1. Cc1csc(Nc2ccc(COCC(F)(F)F)cc2)n1
2. CCC(C)c1ccc(Nc2nc(C)cs2)cc1 (stereo not drawn)
3. Cc1csc(Nc2ccc(C(C)(C)O)cc2)n1
4. CCc1ccc(Nc2nc(C)cs2)cc1
5. Cc1csc(Nc2ccc(OC3CCCC3)cc2)n1
6. Cc1csc(Nc2ccc(C(C)(C)C)cc2)n1

**Result**
1: 1%; 2: 0%; 3: 12%; 4: 0%; 5: 10%; 6: 0%

====

- System: Mycobacterium tuberculosis
- ASSAY_OVERVIEW: Antitubercular activity against Mycobacterium tuberculosis H37Ra infected in THP-1 macrophages measured after 5 days post infection by luciferase reporter gene assay
- Assay type: functional
- CONDITIONS_USED: THP-1, 120 h
MEASUREMENT_TYPE: pIC50
One number for each entry, as −log10 of the molar value.

Worked set:
MOLECULE	EXPERIMENTAL_SYSTEM	pIC50
CCC(O)Cc1ccc(Nc2nc(C)cs2)cc1 (centres undefined)	Mycobacterium tuberculosis	6.40
CCCCc1ccc(Nc2nc(CC(N)=O)cs2)cc1	Mycobacterium tuberculosis	6.07
CCCOc1ccc(Nc2nc(C)cs2)cc1	Mycobacterium tuberculosis	6.82
Cc1csc(Nc2ccc(OCCO)cc2)n1	Mycobacterium tuberculosis	5.50

Value sought for every listed molecule: pIC50.
1. CCc1ccc(Nc2nc(C)cs2)cc1
2. Cc1csc(Nc2ccc(OC3CCCC3)cc2)n1
3. O=C(O)Cc1csc(Nc2ccc(OCCC(F)(F)F)cc2)n1
4. Cc1csc(Nc2ccc(C(C)C)cc2)n1
5. CCCCc1ccc(Nc2nc(C(C)C(=O)O)cs2)cc1 (centres undefined)
6. CCCCCCc1ccc(Nc2nc(C)cs2)cc1

**Result**
1: 6.92; 2: 7.15; 3: 6.57; 4: 8.00; 5: 6.85; 6: 7.30

Value of pIC50 reported for the molecule `CCCCc1ccc(Nc2nc(CC(=O)O)c(C)s2)cc1` is 7.00

====

- System: Mycobacterium tuberculosis
- ASSAY_OVERVIEW: Antitubercular activity against Mycobacterium tuberculosis H37Ra infected in THP-1 macrophages measured after 5 days post infection by luciferase reporter gene assay
- Format: functional
- CONDITIONS_USED: THP-1, 120 h
MEASUREMENT_TYPE: IC50 (nM)
One number for each entry, in nM.

Worked set:
COMPOUND	IC50 [nM]
CCC(C)c1ccc(Nc2nc(CC(=O)O)cs2)cc1 (racemic)	70
CC(C)(C)c1ccc(Nc2nc(CC(=O)O)cs2)cc1	70

Per the reported Mycobacterium tuberculosis data, `CCCCc1ccc(Nc2nc(CC(=O)O)c(Cl)s2)cc1` has IC50 of 70

====

- System: Mycobacterium tuberculosis
- ASSAY_OVERVIEW: Antitubercular activity against Mycobacterium tuberculosis H37Ra infected in THP-1 macrophages measured after 5 days post infection by luciferase reporter gene assay
- Type: functional
- CONDITIONS_USED: THP-1, 120 h
MEASUREMENT_TYPE: IC50

SMILES_TEXT	MEASUREMENT_TYPE	TEST_VALUE
Cc1csc(Nc2ccc(C(C)(C)C)cc2)n1	IC50	< 0.04 µM

Value sought for every listed compound: IC50.
1. CCCCc1ccc(Nc2nc(C)cs2)cc1
2. CCCCc1ccc(Nc2nc(C(=O)O)cs2)cc1

**Result**
1. < 0.005 µM
2. > 20 µM
